These measurements were taken from patent US8273890B2.

Biological target: recombinant Plk1 protein (Homo sapiens, UniProt P53350)
Construct: histidine tag (N)
Sequence (P53350 whole entry): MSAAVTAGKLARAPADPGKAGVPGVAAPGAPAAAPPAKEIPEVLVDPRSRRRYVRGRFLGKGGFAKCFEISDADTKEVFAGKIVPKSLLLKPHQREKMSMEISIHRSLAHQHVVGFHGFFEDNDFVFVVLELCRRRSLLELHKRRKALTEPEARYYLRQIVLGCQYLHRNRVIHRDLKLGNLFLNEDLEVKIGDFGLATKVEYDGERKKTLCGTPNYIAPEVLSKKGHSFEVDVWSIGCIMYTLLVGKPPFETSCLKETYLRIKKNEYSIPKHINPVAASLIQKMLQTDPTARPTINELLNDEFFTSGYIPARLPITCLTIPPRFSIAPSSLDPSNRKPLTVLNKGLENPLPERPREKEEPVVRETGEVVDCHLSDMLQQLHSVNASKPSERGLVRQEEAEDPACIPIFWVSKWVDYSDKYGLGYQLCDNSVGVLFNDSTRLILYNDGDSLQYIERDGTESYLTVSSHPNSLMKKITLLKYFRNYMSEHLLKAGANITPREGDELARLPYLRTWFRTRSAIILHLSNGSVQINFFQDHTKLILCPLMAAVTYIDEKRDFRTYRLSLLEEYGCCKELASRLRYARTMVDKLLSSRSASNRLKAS
Assay: Plk1 kinase activity inhibition assay (33P-ATP, alpha casein substrate, flash plates)
Details: enzymatic assay, 100 nM Li-ATP, 80 minutes at 30° C.
Entries and their IC50

Check out these entries, answers already filled in.
Input line: Given CCC(Oc1cc(-n2cnc3cnc(CN4CCN(CC)CC4)cc32)sc1C(N)=O)c1ccccc1Cl (stereo not drawn) , respond with its IC50.
Output line: < 0.01 µM

Input line: Given NC(=O)c1sc(-n2cnc3ccncc32)cc1OCc1ccccc1C(F)(F)F , respond with its IC50.
Output line: 0.1 to 1 µM

New cases:
Input line: Given CCC(Oc1cc(-n2cnc3cnc(CN4CCN(C)CC4)cc32)sc1C(N)=O)c1ccccc1Cl (stereo not drawn) , respond with its IC50.
Output line: 0.01 to 0.1 µM

Input line: Given NC(=O)c1sc(-n2cnc3cnccc32)cc1OCc1ccc(C(F)(F)F)cc1 , respond with its IC50.
Output line: 0.1 to 1 µM

Input line: Given C[C@@H](Oc1cc(-n2cnc3cnc(CN4CCN(C5CC5)CC4)cc32)sc1C(N)=O)c1ccccc1C(F)(F)F , respond with its IC50.
Output line: < 0.01 µM

Input line: Given C[C@@H](Oc1cc(-n2cnc3cnc(CN4CCN(C(=O)N(C)C)CC4)cc32)sc1C(N)=O)c1ccccc1Br , respond with its IC50.
Output line: < 0.01 µM

Input line: Given NC(=O)c1sc(-n2cnc3ccncc32)cc1OCc1ccc(C(F)(F)F)cc1 , respond with its IC50.
Output line: 0.1 to 1 µM

Input line: Given C[C@@H](Oc1cc(-n2cnc3cnc(CN4CCN(CCO)CC4)cc32)sc1C(N)=O)c1ccccc1Cl , respond with its IC50.
Output line: < 0.01 µM

Input line: Given C[C@@H](Oc1cc(-n2cnc3cnc(CN4CCCN(C)CC4)cc32)sc1C(N)=O)c1ccccc1C(F)(F)F , respond with its IC50.
Output line: < 0.01 µM

Input line: Given CC(c1ccccc1)N1CCN(Cc2cc3c(cn2)ncn3-c2cc(O[C@H](C)c3ccccc3C(F)(F)F)c(C(N)=O)s2)CC1 (stereo partly drawn) , respond with its IC50.
Output line: < 0.01 µM

Input line: Given CCN1CCN(Cc2cc3c(cn2)ncn3-c2cc(O[C@H](C)c3ccccc3C(F)(F)F)c(C(N)=O)s2)CC1 , respond with its IC50.
Output line: < 0.01 µM

Input line: Given C[C@@H](Oc1cc(-n2cnc3cnc(CN4CCN(C(N)=O)CC4)cc32)sc1C(N)=O)c1ccccc1C(F)(F)F , respond with its IC50.
Output line: < 0.01 µM
